Listing of recorded Kd by entry.
Target: T1, human GPVI-1A extracellular domain fused at its C-terminus to human IgG1 Fc (GPVI-Fc) (human)
T1 construct: also called hGPVI-1a; hGPVI
T1 sequence (chain, as listed by the source limits assumed): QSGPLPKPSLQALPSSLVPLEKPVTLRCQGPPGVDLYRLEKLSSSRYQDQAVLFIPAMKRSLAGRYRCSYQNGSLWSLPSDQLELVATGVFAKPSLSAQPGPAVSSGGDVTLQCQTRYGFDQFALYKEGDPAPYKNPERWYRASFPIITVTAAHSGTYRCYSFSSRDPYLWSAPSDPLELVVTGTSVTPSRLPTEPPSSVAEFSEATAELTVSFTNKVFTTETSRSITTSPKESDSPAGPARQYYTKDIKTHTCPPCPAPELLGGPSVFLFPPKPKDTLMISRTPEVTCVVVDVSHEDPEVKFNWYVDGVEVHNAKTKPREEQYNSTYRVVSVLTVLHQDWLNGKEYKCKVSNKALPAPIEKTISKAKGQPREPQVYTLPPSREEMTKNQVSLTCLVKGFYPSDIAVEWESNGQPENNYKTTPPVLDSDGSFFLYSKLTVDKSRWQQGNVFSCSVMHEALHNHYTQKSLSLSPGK
Experiment: Solution equilibrium titration (SET), Fab with GPVI-Fc

Binder	Kd (nM)
Fab #4 comprising a modified heavy chain constant region (Fab, V domains shown, Human Fab from the Ylanthia library; produced in HKB11 cells; also called Fab #4 mod; HC) VH: QVQLVQSGAEVKKPGASVKVSCKASGGAFTSSYMHWVRQAPGQGLEWMGIIEPTGASTLYAQRFQGRVTMTRDTSTSTVYMELSSLRSEDTAVYYCARTGIALPLGFDLWGQGTLVTVSS VL: QSVLTQPPSVSAAPGQKVTISCSGSSSNIGNNYVSWYQQLPGTAPKLLIYDNNKRPSGIPDRFSGSKSGTSATLGITGLQTEDEADYYCAAWSTRFRWVFGGGTKLTVLG	0.022
Fab #2 comprising a modified heavy chain constant region (Fab, V domains shown, Human Fab from the Ylanthia library; produced in HKB11 cells; also called Fab #2 mod; HC) VH: QVQLVESGGGLVKPGGSLRLSCAASGFSFSDHYMSWIRQAPGKGLEWVSSVGSEGKFIDYAASVKGRFTISRDNAKNSLYLQMNSLRAEDTAVYYCARHYREFRWHYYYFDYWGQGTLVTVSS VL: QSVLTQPPSVSGAPGQRVTISCTGSSSNIGAGYDVHWYQQLPGTAPKLLIYGNSNRPSGVPDRFSGSKSGTSASLAITGLQAEDEADYYCQSHDLGAHVWVFGGGTKLTVLG	0.027
Fab #3 comprising a modified heavy chain constant region (Fab, V domains shown, Human Fab from the Ylanthia library; produced in HKB11 cells; also called Fab #3 mod; HC) VH: QVQLVESGGGLVKPGGSLRLSCAASGFSFGDYYVSWIRQAPGKGLEWVSAIGGSGSAVQYAESVKGRFTISRDNAKNSLYLQMNSLRAEDTAVYYCARHYREFRWHYYYFDYWGQGTLVTVSS VL: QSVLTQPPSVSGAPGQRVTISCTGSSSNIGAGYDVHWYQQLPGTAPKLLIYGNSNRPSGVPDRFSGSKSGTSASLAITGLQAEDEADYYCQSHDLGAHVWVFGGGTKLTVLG	0.062
Reference Control Antibody RefFab #1 (humanized GPVI antibody of WO2011073954A2, SANOFI) (Fab, V domains shown, Cloned into mammalian Fab expression vectors; a glycine-serine linker (G4S)2 was added to the C-terminus of the Fab heavy chain) VH: EVQLLESGPGLVAPSGSLSITCTVSGFSLTGYGVNWVRQPPGKGLEWLGMIWGDGSTDYQSTLKSRLSISKDNSKSQVFLKMNSLRTDDTARYYCARDLPMDYWGLGTSVTVSS VL: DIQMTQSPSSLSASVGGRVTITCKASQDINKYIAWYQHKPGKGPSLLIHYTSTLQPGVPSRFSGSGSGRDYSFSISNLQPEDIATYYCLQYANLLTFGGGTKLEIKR	0.054
Fab #1 comprising a modified heavy chain constant region (Fab, V domains shown, Human Fab from the Ylanthia library; produced in HKB11 cells; also called Fab #1 mod; HC) VH: QVQLVQSGAEVKKPGASVKVSCKASGYTFTSHYMHWVRQAPGQGLEWMGLIEPSEGETEYAQRFQGRVTMTRDTSTSTVYMELSSLRSEDTAVYYCARDSSRSYPLGFDIWGQGTLVTVSS VL: QSVLTQPPSVSAAPGQKVTISCSGSSSNIGNNYVSWYQQLPGTAPKLLIYDNNKRPSGIPDRFSGSKSGTSATLGITGLQTEDEADYYCAAWDFRSSRWVFGGGTKLTVLG	0.068

Data origin: patent US20210214435A1
